Value source: ChEMBL document CHEMBL3108721

Molecular target: Estrogen receptor (Homo sapiens, UniProt P03372)
Sequence (P03372 whole entry): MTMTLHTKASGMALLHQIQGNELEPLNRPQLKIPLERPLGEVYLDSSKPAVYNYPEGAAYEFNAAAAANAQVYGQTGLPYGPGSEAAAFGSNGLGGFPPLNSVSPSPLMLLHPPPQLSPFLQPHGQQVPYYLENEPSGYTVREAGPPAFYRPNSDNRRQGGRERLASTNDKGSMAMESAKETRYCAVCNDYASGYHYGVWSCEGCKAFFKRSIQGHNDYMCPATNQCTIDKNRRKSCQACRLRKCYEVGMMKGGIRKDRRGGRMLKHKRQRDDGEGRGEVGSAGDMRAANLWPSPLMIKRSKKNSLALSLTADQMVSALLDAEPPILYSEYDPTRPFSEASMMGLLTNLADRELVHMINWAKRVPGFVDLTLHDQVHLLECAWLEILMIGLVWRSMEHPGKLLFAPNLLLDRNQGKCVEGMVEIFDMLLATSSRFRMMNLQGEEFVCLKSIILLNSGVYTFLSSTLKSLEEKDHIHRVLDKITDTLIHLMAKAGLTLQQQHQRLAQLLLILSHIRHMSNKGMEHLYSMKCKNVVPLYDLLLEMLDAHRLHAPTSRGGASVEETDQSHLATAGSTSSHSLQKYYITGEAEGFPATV
Assay: Mixed-type inhibition of ER-alpha (unknown origin) expressed in ER-negative human SKBR3 cells coexpressing ERE using estradiol as substrate
Format: cell-based, SK-BR-3
assayEndpoint: IC50 (µM)
I only need the number, in µM, no unit after it.

"CCOC(=O)COc1ccc(-c2ccc(OCCN(C)C)cc2)cc1CC1CCCCC1" yielded IC50 of 12.7
